Where do the numbers come from? From PubChem BioAssay (NCI).

Test system: RPMI-8226 leukemia
protocol: NCI tumour cell line growth inhibition, 48 h
In this section, each of the compounds is paired with its reported TGI.

Illustrative cases are given below, each with its answer.
{"columns": ["compound", "measured-quantity", "result"],
 "data": [
  ["CC1=C(C(=O)Nc2ccc(Cl)c(Cl)c2)C(c2cccc(Cl)c2)NC(=S)N1 (stereo not drawn)", "TGI", "> 50 µM"],
  ["CC(C)(C)[Si](C)(C)OC1[C@@H](COC(=O)NC(=O)CCl)O[C@@H](n2cnc3c(N)ncnc32)[C@H]1O[Si](C)(C)C(C)(C)C (stereo partly drawn)", "TGI", "5.63 µM"]
]}

Please examine the following record next.
The reported TGI of the compound `Oc1[nH]c2ccccc2c1C=Nc1ccc(-n2cncn2)cc1` was > 25 µM

###

Tested on: NCI-H226 lung
protocol: NCI tumour cell line growth inhibition, 48 h; in the data active means GI50 below about 0.43 µM; inactive means the rest
Answer with one of the outcomes given here: class 1 (active), class 0 (inactive)

Example results:
{"columns": ["molecule", "system-tested", "label-value"],
 "data": [
  ["COc1ccc2nc3ccccc3c(NCCNCC(C)O)c2c1 (stereo not given)", "NCI-H226 lung", "class 0"],
  ["COC(=O)c1cc(-c2ccc(S(C)(=O)=O)cc2)[nH]c1N/N=C/c1c(Cl)cccc1Cl", "NCI-H226 lung", "class 0"],
  ["Fc1ccc(Nc2nc(Nc3ccc(-c4nc5ccccc5[nH]4)cc3)c3cn[nH]c3n2)cc1", "NCI-H226 lung", "class 0"],
  ["CC(C)(C)[Si](C)(C)OC1[C@@H](COC(=O)NC(=O)CCl)O[C@@H](n2cnc3c(N)ncnc32)[C@H]1O[Si](C)(C)C(C)(C)C (stereo not given in full)", "NCI-H226 lung", "class 0"],
  ["O=C1NC(=NCCc2ccc(Br)cc2)S/C1=C\\c1ccc2ncccc2c1", "NCI-H226 lung", "class 0"],
  ["O=C1Cc2cc(CCN3CCNCC3)c(Cl)cc2N1", "NCI-H226 lung", "class 0"]
]}

# ---- query molecule ----
Ask: In this assay, the call recorded for `COc1ccc2c(c1)-c1c(c3cc(OC)ccc3n(CCN(C)C)c1=O)C2=O` was what?
Result: class 0

###

Test system: T-47D breast
protocol: NCI tumour cell line growth inhibition, 48 h; in the data active = GI50 below about 0.43 µM; inactive = the rest
Answer with one of the outcomes given here: active, inactive

Example results:
{"columns": ["compound", "label-value"],
 "data": [
  ["COc1cc(C(=O)n2nc(N)c3c(C)cc(C)nc32)cc(OC)c1OC", "inactive"],
  ["CC1=C[C@@H]2c3c(c(O)c(O)c4oc5cc(O)cc(O)c5c(=O)c34)[C@@H](c3cc(O)c(O)c4oc5cc(O)cc(O)c5c(=O)c34)[C@@H]2C(C)(C)C1", "inactive"],
  ["CC(=O)c1c(C)c2cnc(Nc3ccc(N4CCNCC4)cn3)nc2n(C2CCCC2)c1=O", "inactive"],
  ["CCOC(=O)/C=C1/SC(=Nc2ccc(C#N)cc2)N(Cc2ccco2)C1=O", "inactive"],
  ["CC1OC(O[C@@H]2C=C3CC[C@@H]4[C@H](CC[C@]5(C)[C@@H](c6ccc(=O)oc6)CC[C@]45O)[C@@]3(C)CC2)C(O)C(OC2OC(CO)C(O)C(O)C2O)C1O (stereo partly specified)", "active"],
  ["COc1ccc2c(c1)-c1c(c3cc(OC)ccc3n(CCN(C)C)c1=O)C2=O", "inactive"],
  ["CCN1C(=O)N(CC)C2C1N=C(SC)N2/N=C/C=C/c1ccccc1OC (stereo unspecified)", "inactive"],
  ["Fc1ccc(Nc2nc(Nc3ccc(-c4nc5ccccc5[nH]4)cc3)c3cn[nH]c3n2)cc1", "inactive"],
  ["O=C(Oc1c(Cl)cc(Cl)cc1Cl)c1ccccc1Nc1ccnc(C(F)(F)F)c1", "inactive"],
  ["CCS(=O)(=O)c1ccc(OC)c(Nc2ncc(-c3cccc(F)c3)o2)c1", "inactive"]
]}

Ask: In this assay, the call recorded for `FC(F)(F)c1cccc(-c2[nH]ncc2-c2nnnn2-c2ccccc2)c1` was what?
Result: inactive

Ask: In this assay, the call recorded for `CC12O[C@H](C[C@@H](OC(=O)CCC(=O)O)[C@H]1O)n1c3ccccc3c3c4c(c5c6ccccc6n2c5c31)C(=O)NC4=O` was what?
Result: inactive

Ask: In this assay, the call recorded for COc1ccc2nc3ccccc3c(NCCNCC(C)O)c2c1 (stereo unspecified) was what?
Result: inactive

Ask: In this assay, the call recorded for `CN1CCN(c2ccc(NC3=CC(=O)c4ncncc4C3=O)cc2)CC1` was what?
Result: active

Ask: In this assay, the call recorded for CCOCCOCCOCCOCCOCCOCCOCCOCCOCCO (tested in a mixture with another compound) was what?
Result: inactive

Ask: In this assay, the call recorded for COc1cc(C2NC(=O)C(C#N)=C(Nc3cccc(C)c3)S2)ccc1O (stereo unspecified) was what?
Result: inactive

###

System: HOP-18 NSCLC
protocol: NCI tumour cell line growth inhibition, 48 h
In this section, each of the compounds is paired with its reported TGI.

Illustrative cases are given below, each with its answer.
{"columns": ["compound", "system-tested", "TGI"],
 "data": [
  ["CSC(C1c2ccccc2N(C)c2[nH]c(=O)n(C)c(=O)c21)S(=O)(=O)c1ccc(C)cc1 (stereo unspecified)", "HOP-18 NSCLC", "> 100 µM"],
  ["CN(C)CCC[N+]1=Nc2cccc3cccc(c23)N1", "HOP-18 NSCLC", "> 100 µM"],
  ["COc1ccc(NC(=O)C(=O)Cc2ccc([N+](=O)[O-])c([N+](=O)[O-])c2CC(=O)C(=O)Nc2ccc(OC)cc2OC)c(OC)c1", "HOP-18 NSCLC", "> 100 µM"],
  ["O=C1C(=C([O-])c2ccccc2)C(=O)c2ccccc21.O=C1C(=C([O-])c2ccccc2)C(=O)c2ccccc21.[Ni+2]", "HOP-18 NSCLC", "> 100 µM"],
  ["COc1cc(O)c(Cc2ccccc2O)c(O)c1C(=O)CCc1ccccc1", "HOP-18 NSCLC", "4.53 µM"]
]}

The reported TGI of the compound `CC1(C)C(=O)/C=C\C(=O)C(C)(C)C(=O)/C=C\C(=O)C(C)(C)C2=CC=C(O2)C(C)(C)C(=O)/C=C\C1=O` was 37.1 µM

The reported TGI of the compound `COc1ccc(-c2oc3cc(O)c(OC)c(O)c3c(=O)c2O)cc1` was > 100 µM

The reported TGI of the compound `Cc1nn2c(c1C#N)NNc1c-2sc(=N)nnc1=O` was > 100 µM

The reported TGI of the compound `O=C1[C@@H]2C(c3ccccc3[N+](=O)[O-])=NO[C@@H]2C(=O)N1c1ccc(Cc2ccc(N3C(=O)[C@H]4C(c5ccccc5[N+](=O)[O-])=NO[C@H]4C3=O)cc2)cc1` was > 100 µM

The reported TGI of the compound N#CC(/C(CCCC(=O)Nc1cccc([N+](=O)[O-])c1)=N\NC(=O)c1c(O)ccc2ccccc12)c1nc2ccccc2s1 (stereo unspecified) was > 100 µM

The reported TGI of the compound COc1ccc(C(=O)C(C(=O)C(=O)NCCCNC(=O)C(=O)C(C(=O)c2ccc(OC)cc2)c2ccc(OC)cc2)c2ccc(OC)cc2)cc1 (stereo unspecified) was > 100 µM

###

Tested on: HS 578T breast
protocol: NCI tumour cell line growth inhibition, 48 h; in the data active = GI50 below about 0.43 µM; inactive = the rest
Answer with one of the outcomes given here: yes (1) for active, no (0) for inactive

Example results:
{"columns": ["molecule", "system-tested", "label-value"],
 "data": [
  ["Cc1c(C(N)=O)sc2nc(C)n(/N=c3\\scc(-c4ccccc4)n3Cc3ccccc3)c(=O)c12", "HS 578T breast", "no (0)"],
  ["COc1ccc2c(c1)C(=O)c1c-2n(CCCN(C)C)c(=O)c2cc([N+](=O)[O-])ccc12", "HS 578T breast", "no (0)"],
  ["CCS(=O)(=O)c1ccc(OC)c(Nc2ncc(-c3cccc(F)c3)o2)c1", "HS 578T breast", "no (0)"],
  ["CCC(=O)Nc1nnc(Cc2ccc(OC)c(OC)c2)s1", "HS 578T breast", "no (0)"]
]}

# ---- query molecule ----
Ask: In this assay, the call recorded for CCN1C(=O)N(CC)C2C1N=C(SC)N2/N=C/C=C/c1ccccc1OC (stereo not given) was what?
Result: yes (1)

###

Test system: SK-OV-3 ovarian
protocol: NCI tumour cell line growth inhibition, 48 h
Where a SMILES comes first, the peptide text is derived from it. [ ]: non-standard residue; d: D form. The star is where a group is joined. ξ: configuration not given here. NMeF = CN[C@@H](Cc1ccccc1)C(=O)O; NMeV = CN[C@H](C(=O)O)C(C)C; ξNMeV = CNC(C(=O)O)C(C)C; Boc = CC(C)(C)OC(=O)*; OBn = c1ccc(CO*)cc1
measured-quantity: TGI

Observed TGI on SK-OV-3 ovarian, entry `COc1ccc(-c2cc(-c3ccc(Nc4ccnc5cc(Cl)ccc45)cc3)[nH]c(=O)c2C#N)cc1` , equals > 100 µM

Observed TGI on SK-OV-3 ovarian, entry CC(=O)NC(C)(C)C1CCC(C)CC1 (centres undefined) , equals > 100 µM

Observed TGI on SK-OV-3 ovarian, entry `Cc1ccc(S(=O)(=O)N(CCNC(=O)c2cccc(O)c2O)c2cc3c4c(c2)Oc2cccc5c2C4(C)c2c(cccc2O3)O5)cc1` , equals > 100 µM

Observed TGI on SK-OV-3 ovarian, entry CC(C)C(C(=O)N(C)[C@H](C(=O)N1CCC[C@H]1C(=O)N(C)[C@@H](Cc1ccccc1)C(=O)OCc1ccccc1)C(C)C)N(C)C(=O)[C@@H](NC(=O)OC(C)(C)C)C(C)C (some centres undefined) (Boc-V[ξNMeV][NMeV]P[NMeF]-OBn) , equals > 31.6 µM

Observed TGI on SK-OV-3 ovarian, entry N#CC1=C(N)N(/N=C/c2ccco2)C(c2ccco2)C1(C#N)C#N (centres undefined) , equals 83.8 µM
